B1: library; numbered along this chain (parent)
chain: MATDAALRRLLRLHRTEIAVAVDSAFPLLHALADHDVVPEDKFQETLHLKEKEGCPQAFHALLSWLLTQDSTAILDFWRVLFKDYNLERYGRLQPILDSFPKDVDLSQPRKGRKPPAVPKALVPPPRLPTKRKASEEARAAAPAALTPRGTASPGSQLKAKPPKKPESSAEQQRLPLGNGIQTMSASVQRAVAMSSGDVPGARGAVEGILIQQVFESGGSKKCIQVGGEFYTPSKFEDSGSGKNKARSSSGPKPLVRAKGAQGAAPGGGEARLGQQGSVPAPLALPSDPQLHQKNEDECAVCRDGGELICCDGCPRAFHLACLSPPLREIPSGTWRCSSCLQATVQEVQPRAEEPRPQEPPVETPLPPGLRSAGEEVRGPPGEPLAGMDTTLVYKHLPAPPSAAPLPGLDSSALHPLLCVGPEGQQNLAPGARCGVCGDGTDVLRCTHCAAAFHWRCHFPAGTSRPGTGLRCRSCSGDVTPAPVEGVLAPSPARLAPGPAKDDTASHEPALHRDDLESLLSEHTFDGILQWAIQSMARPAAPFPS

variants of: B1; experiment: AIRE transcriptional activation functional score (insulin promoter-GFP; nonsense median 0, synonymous median 1) (normalised score); higher = higher AIRE activity (more reporter activation); settings: with insulin promoter-GFP reporter in HEK293
MEASURE: AIRE transcriptional activation functional score

The value of AIRE transcriptional activation functional score measured for the variant "E40N" turned out to be -0.324

The value of AIRE transcriptional activation functional score measured for the variant "S241N" turned out to be 1.13

The value of AIRE transcriptional activation functional score measured for the variant "L529T" turned out to be 0.261

The value of AIRE transcriptional activation functional score measured for the variant "L10G" turned out to be -0.12

The value of AIRE transcriptional activation functional score measured for the variant "A429K" turned out to be 0.0334

The value of AIRE transcriptional activation functional score measured for the variant "G277M" turned out to be 1.01

The value of AIRE transcriptional activation functional score measured for the variant "F43V" turned out to be 0.36
